Exercise: state measured Emax for each of the molecules provided.
Target: SIRT1 (Homo sapiens)
Assay: Trp mass spectrometry assay of SIRT1 activity
Format: biochemical
Settings: Trp assay; percent maximum fold activation; read-out: Trp % Fold Act

Parameter requested: Emax. Apply to each item below.
1. C[C@@H]1CN(c2ccc3ncc(C(=O)Nc4cccnn4)n3n2)C[C@H](C)O1
2. O=C(Nc1cccnn1)c1cnc2ccc(-c3ccccc3OC(F)(F)F)nn12
3. O=C(Nc1ccc(F)cn1)c1cnc2ccc(N3CCC(F)(F)C3)nn12

# output
≥ 350%
≥ 350%
< 350%

###

Molecular target: SIRT1 (Homo sapiens)
Sequence (Q96EB6 1-747): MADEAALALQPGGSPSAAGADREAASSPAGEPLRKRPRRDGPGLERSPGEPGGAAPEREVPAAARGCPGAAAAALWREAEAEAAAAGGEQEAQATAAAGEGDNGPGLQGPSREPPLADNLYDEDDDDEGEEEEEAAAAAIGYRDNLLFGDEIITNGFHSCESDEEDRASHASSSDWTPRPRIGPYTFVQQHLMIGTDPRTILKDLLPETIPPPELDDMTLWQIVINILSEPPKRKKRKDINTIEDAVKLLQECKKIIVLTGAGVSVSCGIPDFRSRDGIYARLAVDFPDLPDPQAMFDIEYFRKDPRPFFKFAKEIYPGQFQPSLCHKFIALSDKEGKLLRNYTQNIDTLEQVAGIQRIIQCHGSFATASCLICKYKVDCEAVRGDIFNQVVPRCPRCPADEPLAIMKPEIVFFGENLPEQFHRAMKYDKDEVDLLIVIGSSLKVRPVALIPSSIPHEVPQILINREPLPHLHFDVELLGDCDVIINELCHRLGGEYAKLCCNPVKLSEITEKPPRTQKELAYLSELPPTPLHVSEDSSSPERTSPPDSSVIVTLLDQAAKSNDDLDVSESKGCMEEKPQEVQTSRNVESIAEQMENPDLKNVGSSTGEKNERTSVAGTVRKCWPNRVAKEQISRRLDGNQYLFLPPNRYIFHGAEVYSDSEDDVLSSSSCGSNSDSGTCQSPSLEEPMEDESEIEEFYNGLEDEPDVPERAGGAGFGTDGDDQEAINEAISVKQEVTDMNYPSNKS
Assay: Trp mass spectrometry assay of SIRT1 activity
Format: biochemical
Conditions: Trp assay; percent maximum fold activation; read-out: Trp % Fold Act
I'd be grateful if you could share measured Emax for these entries.

Before answering, review these 3 worked examples.
# Compound, Value Reported
data = [
    ("Cc1cc(-c2ccccc2C(F)(F)F)nn2c(C(=O)Nc3nccc(N4CCCC4)n3)cnc12 [Compound 647]", "≥ 350%"),
    ("Cc1ccncc1NC(=O)c1cnn2ccc(-c3ccccc3OC(F)(F)F)nc12 [Compound 610]", "≥ 350%"),
    ("CC1CCN(c2ccc3ncc(C(=O)Nc4ccc(F)cn4)n3n2)C1 (stereo not shown) [Compound 977]", "< 350%"),
]

Now for a further compound.
# input Which Emax reading was recorded for the compound O=C(Nc1ccccn1)c1cnc2ccc(N3CC[C@H](F)C3)nn12 [Compound 836] ?
# output ≥ 350%
